# SYSTEM UNDER TEST: CB1 receptor (Homo sapiens)
# Sequence (P21554 whole entry): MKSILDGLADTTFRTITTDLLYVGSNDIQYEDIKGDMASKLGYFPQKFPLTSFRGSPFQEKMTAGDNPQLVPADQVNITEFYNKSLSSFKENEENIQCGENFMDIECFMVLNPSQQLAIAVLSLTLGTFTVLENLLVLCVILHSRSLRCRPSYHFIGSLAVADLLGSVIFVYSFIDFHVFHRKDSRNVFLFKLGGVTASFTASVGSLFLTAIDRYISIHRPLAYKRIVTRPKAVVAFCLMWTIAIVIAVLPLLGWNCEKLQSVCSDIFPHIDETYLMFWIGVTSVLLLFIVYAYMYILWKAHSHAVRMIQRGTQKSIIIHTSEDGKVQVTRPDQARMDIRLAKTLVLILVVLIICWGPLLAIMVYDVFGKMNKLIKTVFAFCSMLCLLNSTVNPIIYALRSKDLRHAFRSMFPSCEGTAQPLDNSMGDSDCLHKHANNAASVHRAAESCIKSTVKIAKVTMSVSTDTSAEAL
# EXPERIMENTAL PROTOCOL: [35S]-GTPγS binding assay on membranes from cells stably transfected with the CB1 gene, inhibition of agonist CP55940 (EC80)
# TEST SETTINGS: half maximal inhibition of GTPγS binding in presence of EC80 concentration of CP55940; 30° C., 45 min
# Experimental: The compound of the present invention is active against the receptor product of the CB1 gene. […] 10 μg of membranes prepared from cells stably transfected with the CB1 gene were suspended in 200 μl of 100 mM NaCl, 5 mM MgCl2, 1 mM EDTA, 50 mM HEPES (pH 7.4), 1 mM DTT, 0.1% BSA and 100 μM GDP. […] Filters were then covered with scintilant and counted for the amount of [^35S]-GTPγS retained by the filter. […]
MEASURED ENDPOINT: pIC50
Just the number, please; pIC50 means minus log10 of the concentration in mol/L.

For the compound O=C(N[C@@H]1CCCC[C@@H]1O)c1nn(-c2ccc(Cl)cc2Cl)c(-c2ccc(OS(=O)(=O)CCC(F)(F)F)cc2)c1CO (single isomer, unassigned) , give its measured pIC50 value.
8.64
